Would you kindly list half-life for each of these compounds?
Assay overview: Liver microsome metabolic stability test, rat
Assay type: in vitro ADME
Experimental parameters: liver microsomes, 0.5 mg/mL protein, read-out: T½
Unit min implied. Number only.

input: Need half-life of Nc1nccn2c(C3CCC(CO)OC3)nc(-c3ccc(Oc4ccccc4)cc3)c12 (stereo not drawn) , thanks.
output: 21.7

input: Follow-up entry: Nc1nccn2c(C3CCC(CO)OC3)nc(-c3ccc(C(F)(F)c4ccccc4)cc3)c12 (stereo not drawn)
output: 53.2

input: Follow-up entry: Nc1nccn2c(C3CCC(CO)OC3)nc(-c3ccc(Cc4ccccc4)cc3)c12 (stereo not drawn)
output: 46.9

input: Follow-up entry: Nc1nccn2c(C3CCC(CO)OC3)nc(-c3ccc(C(=O)c4ccccc4)cc3)c12 (stereo not drawn)
output: 30.1

input: Follow-up entry: COc1cccc(Oc2ccc(-c3nc(C4CCC(CO)OC4)n4c(Cl)cnc(N)c34)cc2)c1F (stereo not drawn)
output: 11.8

input: Follow-up entry: Nc1nccn2c(C3CCC(CO)OC3)nc(-c3ccc(Oc4cccc(F)c4F)cc3)c12 (stereo not drawn)
output: 20.8

input: Follow-up entry: COc1cccc(Oc2ccc(-c3nc(C4CCC(CO)OC4)n4ccnc(N)c34)cc2)c1C#N (single isomer, unassigned) [Compound 89-P1]
output: 88.4

input: Follow-up entry: COc1ccccc1C(=O)NCc1ccc(-c2nn(C3CCC(CO)OC3)c3ncnc(N)c23)cc1 (single isomer, unassigned)
output: 143

input: Follow-up entry: Nc1nccn2c(C3CCC(CO)OC3)nc(-c3ccc(Oc4c(F)cccc4F)cc3)c12 (stereo not drawn)
output: 17

input: Follow-up entry: Nc1nccn2c(C3CCC(CO)OC3)nc(-c3ccc(Oc4cccc(Cl)c4F)cc3)c12 (stereo not drawn)
output: 12.2

input: Follow-up entry: COc1cccc(Oc2ccc(-c3nc(C4CCC(CO)OC4)n4ccnc(N)c34)cc2)c1F (stereo not drawn)
output: 11.4

input: Follow-up entry: Nc1nccn2c(C3CCC(CO)OC3)nc(-c3ccc(Oc4cccc(C(F)(F)F)c4F)cc3)c12 (stereo not drawn)
output: 16.7
